EXPERIMENTAL_SYSTEM: Solute carrier family 15 member 1 (Homo sapiens)
EXPERIMENT_SUMMARY: Affinity for hPEPT1 in mature Caco-2 cell monolayers using [14C]-Gly-Sar
pKi: −log10 of the molar value.
# reported pKi; entries follow
MEASURED_METRIC: pKi

COMPOUND | MEASURED_METRIC | MEASURED_NUMBER
CC(C)[C@H](N)C(=O)C[C@@H](CC(=O)OCc1ccccc1)C(=O)O | pKi | 4.72
CC(C)[C@H](N)C(=O)CCC(=O)OCc1ccccc1 | pKi | 3.88
N[C@@H](Cc1ccccc1)C(=O)CCC(=O)OCc1ccccc1 | pKi | 3.04
NC(CC(=O)OCc1ccccc1)C(=O)CCC(=O)O (stereo not given) | pKi | 3.38
N[C@@H](Cc1ccccc1)C(=O)C[C@@H](CC(=O)OCc1ccccc1)C(=O)O | pKi | 4.17

###

EXPERIMENTAL_SYSTEM: Solute carrier family 15 member 1 (Homo sapiens)
Sequence (P46059 whole entry): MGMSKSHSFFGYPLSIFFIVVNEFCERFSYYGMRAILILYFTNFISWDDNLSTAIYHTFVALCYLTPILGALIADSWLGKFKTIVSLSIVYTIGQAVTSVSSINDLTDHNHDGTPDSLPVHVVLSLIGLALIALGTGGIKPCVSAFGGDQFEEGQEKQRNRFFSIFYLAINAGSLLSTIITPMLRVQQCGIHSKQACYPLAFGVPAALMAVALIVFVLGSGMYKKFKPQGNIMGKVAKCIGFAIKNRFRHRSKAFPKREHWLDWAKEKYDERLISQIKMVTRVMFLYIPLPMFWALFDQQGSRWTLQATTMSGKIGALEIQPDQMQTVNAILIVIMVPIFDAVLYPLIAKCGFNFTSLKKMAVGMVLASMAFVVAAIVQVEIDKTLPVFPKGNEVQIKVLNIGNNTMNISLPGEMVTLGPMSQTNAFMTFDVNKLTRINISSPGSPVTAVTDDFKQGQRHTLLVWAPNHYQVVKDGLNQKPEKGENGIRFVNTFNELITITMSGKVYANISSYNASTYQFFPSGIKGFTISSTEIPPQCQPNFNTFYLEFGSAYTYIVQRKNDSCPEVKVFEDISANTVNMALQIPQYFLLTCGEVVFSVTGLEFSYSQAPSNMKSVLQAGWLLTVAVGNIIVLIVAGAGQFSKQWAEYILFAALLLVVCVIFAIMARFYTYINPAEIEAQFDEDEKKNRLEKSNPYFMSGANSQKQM
EXPERIMENT_SUMMARY: Inhibition of [14C]Gly-Sar transport by hPEPT1 in Caco-2 cell monolayers
pIC50: −log10 of the molar value.
Rule: fulfilled for pIC50 not less than 4, not fulfilled for anything less.

COMPOUND | GROUP
N[C@@H](Cc1ccccc1)C(=O)C[C@@H](CC(=O)OCc1ccccc1)C(=O)O | fulfilled
CC(C)[C@H](N)C(=O)C[C@@H](CC(=O)OCc1ccccc1)C(=O)O | fulfilled
N[C@@H](Cc1ccccc1)C(=O)CCC(=O)OCc1ccccc1 | not fulfilled
CC(C)[C@H](N)C(=O)CCC(=O)OCc1ccccc1 | not fulfilled
NC(CC(=O)OCc1ccccc1)C(=O)CCC(=O)O (stereo not given) | not fulfilled
